Ref: the DeepSol protein solubility set

assay: soluble on expression in E. coli; label from the status in PepcDB or PDB records
measurement_label: soluble on expression in E. coli

// solved cases for soluble on expression in E. coli follow
**Q:** Please give measured soluble on expression in E. coli of the following entry: MKPVKAKCEVCEHMFRVQMLTARLSNRVDKHYFICPSCKTEFISYYSNREMRQLQKEISNLYKGFRTCYTKEQAKVIQAKIDKKDLEFKWLRDILRTEIENNLPN
**A:** not soluble

**Q:** Quote soluble on expression in E. coli reported for MPLPTELARHLTEEKIAFVQRSGLRAEVLEPGYVRLRMPGAGNENHIGSMYAGALFTLAELPGGALFLTSFDSARFYPIVKEMTLRFRRPAKGDIRVEARLDAERIRQLETEAGERGKAEYSLELQLTDEQGEVVAESAALYQLRSHARP please.
**A:** soluble

**Q:** Read off the recorded soluble on expression in E. coli for MPPPLPYDAMRSVWTDTAAPAMATAPLAGHADCDVAIVGAGITGLSAALHLAERGLRACVLEARDPGWGASGRNGGQVIPGIKHDPDEILARHGRERGEPLLHMVGTAADTVFDLIDRYGLDLVQAQIRLAAGERLDRVVPADLQPSGHAIELRVYAEDPVRFIPSPGTLAVFELPQGPGVRTETGYHAGNAVSPHYDPMIAKIIVHGADRAQAIARAEQALADTEIAGVKTNLPFLARALAFEPWRQGRLHTGIVARTLAEPAPAALTALEHHHHHH
**A:** not soluble

**Q:** Give the reported soluble on expression in E. coli for this sequence. MKIYVSRSRLKSNRRRLINETDVERLFSRNGFQIIHPQELTIKEQINLFRHAQVIAGPLGSAMYNCVFQTKPTKKLLLTYEKFIKMSDLLINTSTNGLLYYFAGTEHKQNKSPSNTEWLEHHHHHH
**A:** soluble

**Q:** Kindly indicate its recorded soluble on expression in E. coli. Item: MSLLRFGIISTAKIAQDHVIPAIQDAENCVVSAIASRDHARARAVAERFSVPHAFGSYEEMLASDVIDAVYIPLPTAQHVEWTIKAANAGKHVLCEKPIALKAEEIDTLIAARDRNGVIVSEAFMVTYSPVWAKVKELLASGAIGTLKHVQGAFSYFNRDPGNMRNIPELGGGALPDIGVYPTIVTRFATGAEPRRVQATVERDREFGTDIYSSVRADFGTFELSFYLATQLASRQLMVFHGTDGYIEVKSPFNANRWGAEEIELTNQAHNQSQVFRFQDSRQYKLEAEAFARAVRGEGEVVTLENSRKNQLFIDAIYRAAEKDGWETVEGHHHHHH
**A:** soluble

Continuing:
**Q:** # return recorded soluble on expression in E. coli for entry MEEMGSRSDTIMVASLNRETKEIKLVSVYRDTLLQLSDGTYNKANAAYAYGGEEEAVAMLNKNLDLNIEHYVSVDFSVLVHVIDALGGIDINVEEAENGMDIIPYLNNYVVEVIKNTGVDSAPFTQLGQQHLNGVQATAYARLRYGGGDDYKRTERQRQVLEQIAIKAQKAKLSTINKIIDKVFDNVKTNFTLTETIAYAKDVKSYIFGETQGFPYESTTADLDVGNSVVATDLASDVTKLHQFLFGENDYTPSSTVQSISEDISNSTYDTGESYDTEYDEYGYSQDYSGYDSGYTDNSYGTGGYQDSGYGDGSSGNGYTEDTGGDYVPPSDGGGTDSGSSDSNSQIPDTGTGDSGDTGGESLELEHHHHHH
**A:** soluble

* * *

test: soluble on expression in E. coli; label from the status in PepcDB or PDB records
measurement_label: soluble on expression in E. coli

**Q:** Dear colleague, please send me the reported soluble on expression in E. coli for MAMKRREMLSLCGKSVIALGCGGLPAILRAQGRFPSKALTYVVAYTPGSANDILVRILAPELGTQLGQSIIVDNKPGAGGSIGMAAVAQSKADGYTLGLGSTATMAINRALYKNLPYDPLRDFESVVKFASTANVLVVPAGGPAKTLADLKPRDGKPLMFSSPGNGTTQHLAGVLFSSTTKLPTEHVPYRGPAESVMAVASGEVDFSLASLPSALAQIRAGRLRVLGCTSLKPPSSLPQAVSLAEQGLPGFERTEVWFGLVVPSGTPDQARLALEQASVQVLGKQDVREKLEQAGYQPANPQSEGKFDPFVREQVAFWADLVKQAGASIDLEHHHHHH when you can.
**A:** soluble

**Q:** Respond only with soluble on expression in E. coli recorded for MSLTMNSEDKFKILQIADLHFSTGYGKCLDPQPPSSAKGCKADSRTLEFINKVLDLEKPDMVVLTGDQIFGDASPDLESSAFKALNPFVERKIPFAITVGNHDDEGSLKREEIMGLYADMPYSVAAMGPASIDGFGNYVVTVQGKSSKATALSLYFVDSHAYSKTPKVTPGYDWIKENQLIYLKQEAESIQNSVEKYRKSNKIPLAMAFFHIPLPEFRNLNQPFIGENREGVTAPRYNSGARQVLSEIGVSVASVGHDHCNDYCLQDTQQSLSPGDNKMWLCFGGGAGLGGYGGYNGYIRRMRVYELDTSKGEIKTWKRTEDNPGNIIDEQVLVSNGDVVNEGHHHHHH
**A:** soluble

* * *

test: soluble on expression in E. coli; label from the status in PepcDB or PDB records
measurement_label: soluble on expression in E. coli

**Q:** Quickly give me recorded soluble on expression in E. coli for MAMQLEICANSAASCRQAELGGATRVELCAGIPEGGTTPSAGEMAVARSLIAIPIHVIIRPRAGDFVYSSEEIEAMCYDIRVVRSLGMEGVVFGCLTPEGGYDEEANSRLLKEAQGMQLTFHRAFDVCAAPFEMLEKLIAAGFHRVLTSGCAPTALEGKDMIGALNKQATGRIGIMAGCGIRLGNIETLARHTGITQFHSSLRHDIPSSMRFRRPEVSMGGTVKIDEYSRPETSADMVRQAVDILQGILEHHHHHH
**A:** not soluble

**Q:** For the sequence MGSDKIHHHHHHMRRSKLTPTTPPMFKNLSVYRIQGDWHPAIAEAEASLQKFRFAECGATQAISAGWVEPRGEKHGPLVEAVGDQWMLTLCIQTKLLPAGVIKQHVDARIEQIKQREARRPGKKEVREIKEAVILELLPKAFSKKEHISVWIDRKNKLVAIDTASQSKCDTATSALVKTLDGLAIGLIQTQMSPGTCMSQWLMDGEAPDGFGVERECELKSSDESRSAVKYSRHVLDIDEVKQHLTHGKTPTQLAMTWTDRVSFTLTDAMALKKVTFLETPLMKKKAGGDDPFDANAAIVTGELSQLIPQLIEALGGELEFTGESGEGAREAKSEEREQETAEA , give its measured soluble on expression in E. coli value.
**A:** not soluble

**Q:** Could you please provide reported soluble on expression in E. coli for MEYIPDNSDEGRIVAMTLAVALRRALASVLGVSATELGYAVRPVRLDNEQSVLAVQLYDIISGGAGFASSAPLHIEAVLKGMVKQLGCRHCDTACSECLLDSQTRHDHDQLDRKAAQAWLGEDFSHYIGLPEAEKLEHHHHHH ? Thanks!
**A:** not soluble

* * *

assay: soluble on expression in E. coli; label from the status in PepcDB or PDB records
measurement_label: soluble on expression in E. coli

Consider the reported soluble on expression in E. coli for these sequences:
**Q:** Give recorded soluble on expression in E. coli. MSSISSSSSNVRMDRRFDWVGPPDNLSKIRKIMLRRVDNESELERQYRLAREELNQWNSDFWAEHNQLFDRQKSDFVERKQQELGRLEHVSANELSEFYRDFLNDRHVAMMAYNKEWYRRNLQLIWPALKVNVVRFFRMARR
**A:** not soluble

**Q:** Consider the sequence MAHHHHHHMCSDVKFSERLTTSPAVVTGFLSPTLRKVMKATMKNSDFNDNTNNSNNMNMFQNLPATLELNPSHTIVTSIYHLKNTNQEVAKLLVQQLYDNACIAAGILEDPRSLLSKLNELLLLTARYAYHYEKKDIQENTKDQPIDVKDNTMAIDNIVNTKENNTNDDSVMKEAQSSNL and give its recorded soluble on expression in E. coli.
**A:** soluble

**Q:** Give the value of soluble on expression in E. coli reported for the following: MQRKGDTPATLDLFADQTPQPRRDEQIGPGSWLFSGFALPAMPTLLLALEQTLGHSPFRHMLTPGGLSMSAALSSCGPLGWITDRHGYRYSDVDPQTGQPWPAMPDAFMQLAQSAALAAGYRGFVPDACLINRYIPGAKMSLHQDKDEHDHRWPVVSVSLGIPAIFQFGGMQRSDKTRRISLFHGDVVVWGGEDRLRFHGILPIKQAEHPLLGEQRINLTFRKAGRDSLEHHHHHH
**A:** soluble

**Q:** Using the record for EVVVIGYGTAKRKDITGSVATVNAEALTVVPVASATEALTGKMAGVQITTTEGSPDAEMKIRVRGGGSITGDNTPLFIVDGFPVESISDIPASDIEDMTVLKDASSTAIYGSRGANGVILVTTKSGK , state its measured soluble on expression in E. coli.
**A:** not soluble

**Q:** Tell me its soluble on expression in E. coli given MGSMSMNAEQTVAELIARSNRLGSDPKNTNYAGGNTSAKGTDTDPVTGQPVELLWVKGSGGDLGTLTENGLAVLRLDRMRALVDVYPGVEREDEMVAAFDYCLHGRGGAAPSIDTAMHGLVDAAHVDHLHPDSGIALATAADGEALTKQIFGDRVVWVPWRRPGFQLGLDIADIKRRNPQAIGTILGGHGITAWGSTSAEAEAHSLEIIETAERYIAENGLEHHHHHH as the entry.
**A:** soluble

**Q:** Item MVAKIKKFSDSTLSVLNNGERRFYVYCLTDLKKDKILYIGKGCGNRIFEHEWVASRSQDPVSGEIIDRKLKAISKCKKLGRYIISYHLTEVEALAAESALIHFVKSVLGKKLKNKIAGHGPGGISVEELDRRFGFSSLPLNEINPDGLILAIKIHNAFDLDTDEELDYLFDNQDDANLKSRTLGNWVIGKDVASKVKYVIGVHTGLQNAVVSAYEVDGFETMVEETKNGRKQSRYRFRTTSRSEEVLAKLGLQQKCLPELKFGSGGEKAYIRPKTETETEQENIQTTPNPKIKKEKTKSLEHHHHHH : provide soluble on expression in E. coli
**A:** soluble

For every record below, what is its soluble on expression in E. coli?
1. MKNICFINGSPRSKKANSTLYLNLIDKSLDSKNYTKYYIDTTSSIKGDLESTFKTLLDADYIILAFPLYVYSMPSLLVRFLEDYYIYLKNKDTISQKTNLYAVVNCGFPDAKMNVEALKIVFNCCKKLNINFRFGIGIGAGEFVNFSKNNPLLNKLSSCVYKSINKITYDIENQVSIEINNIFVNPKIPRRLFFIFGHIFWKKWAKRNGIKISALFDKPLEHHHHHH
2. MSLALLNVDKLSVHFGDESAPFRAVDRISYSVKQGEVVGIVGESGSGKSVSSLAIMGLIDYPGRVMAEKLEFNGQDLQRISEKERRNLVGAEVAMIFQDPMTSLNPCYTVGFQIMEAIKVHQGGNKSTRRQRAIDLLNQVGIPDPASRLDVYPHQLSGGMSQRVMIAMAIACRPKLLIADEPTTALDVTIQAQIIELLLELQQKENMALVLITHDLALVAEAAHKIIVMYAGQVVETGDAHAIFHAPRHPYTQALLRALPEFAQDKERLASLPGVVPGKYDRPNGCLLNPRCPYATDRCRAEEPALNMLADGRQSKCHYPLDDAGRPTEGHHHHHH
3. MGSDKIHHHHHHMKTIMYLHAGAEMYGSDKVLLQLVTGLDKKQFKPIVVLPEHGPLEKALETNDIQTEVVAYPILRRKYFNPKGIFNYASGYFKAEKVLANLAIKYHVDLIHVNTLAVLEGITLKKRIKKPLIWHVHEILLSPKFMWKLTAYLSAKYADKIVVVSNATGEHLKKAGYAKENQIVTIYNGINIPKGLENSDFRQEFDIPKNAFVFGHVGRINAWKGQEDFLKASLKLMSNYSKVHVLFSGNAYKGEEWREEKLKKEINESGFSDRIHYLGFQHEIRKVFNTMNVFVSSSIRPDPFPMVTLEAMANSKPIVSYDHGGPSELIVNAKTGYLVQPHNIDDLSLKMSMLINPKLESKFGVVGRKRVLSEFSETKFLQNFSFLYGDM
4. MVEVVRNKRPPRGLVPRLRRALAALMEELGVGDKGVTVILTGDRRLRALKREWWGEAGKAYRKSVGPFGPGLPRPRAKCQPLIISTWRPHF
5. ATEPFMKGRVKLLPDILPGKNKDHEFEALVSTIQDMSLKMMELMVERPPRELILSMRRNKNPMYQINFASANISTSIAVKQELLEISKMKDRGYRLLYLLHKELQVMELKASIQMKTREEMDKQQKEYFLQQQIKTIQEELGGNINDIEVQELRTKAATMKWSSEVAETFEKELRKLERLHPQSPDYSVQMQYVQTIISLPWGVFSKDNFNLKRAQSVLDRDHFGLEKVKERIIEHLAVLKMKGDMKSPIICLYGPPGVGKTSLGKSIAESLGRKYVRISLGGLHDEAEIRGHRRTYIGAMCGRIIQSLQRAGTSNPVFVLDEIDKIDSDYKGDPSSALLEVLDPEQNNAFHDNYLDIDFDLSHVLFIATANSLSSISRPLLDRMELIDV
6. EDRSVHFDSMSNGQGAASALPIFAEFLKRVYADPKLGYTTEEKFEFPQDFQPCMMDQNVEYFDAGGGEVVEPLPEILVELP
7. TDLSAQKRLAADVLDVGKNRVWFNPERQGDIADAITREDVRELVDEGAIQAKDKKGNSRGRARERQKKRAKGHQKGAGSRKGKAGARQNSKEDWESRIRAQRTKLRELRDEGTLSSSQYRDLYDKAGGGEFDSVADLERYIDANHGDA

**A:**
1. not soluble
2. soluble
3. not soluble
4. soluble
5. not soluble
6. not soluble
7. soluble
